measurementKind: CC50

Task: Send back human embryonic kidney (HEK) 293 T cells CC50 of O=C(O)CC1C2CCCN3CCCC(CN1Cc1ccc(Cl)cc1)C23 (stereo not shown) [11a, 12N-p-Chlorobenzyl matrinic acetic acid] only.
Result: > 200 µM

Task: Report measured CC50 on human embryonic kidney (HEK) 293 T cells; entry: COC(=O)CCC[C@@H]1[C@H]2CCCN3CCC[C@H](CN1C(=O)c1ccc(Cl)cc1)[C@@H]23 [4b, Methyl 12N-p-chlorobenzoyl sophoridinate]
Result: 200 µM

Task: State recorded CC50 with human embryonic kidney (HEK) 293 T cells, entry COC(=O)CCCC1C2CCCN3CCCC(CN1Cc1ccc(Cl)cc1)C23.Cl.Cl (stereo not shown) [7a] , no comment.
Result: 200 µM

Task: Provide measured CC50 on human embryonic kidney (HEK) 293 T cells for COC(=O)CCCC1C2CCCN3CCCC(CN1S(=O)(=O)c1ccc(Cl)cc1)C23 (stereo not shown) [4c] please.
Result: > 22 µM

Task: Please report the measured CC50 for O=C(O)CC1C2CCCN3CCCC(CN1C(=O)c1ccc(Cl)cc1)C23 (stereo not shown) [11b, 12N-p-Chlorobenzoyl matrinic acetic acid] tested on human embryonic kidney (HEK) 293 T cells.
Result: > 200 µM

Task: Please indicate recorded CC50 of COC(=O)CCCC1C2CCCN3CCCC(CN1Cc1ccc(Cl)c(Cl)c1)C23.Cl.Cl (stereo not shown) [4a] measured with human embryonic kidney (HEK) 293 T cells.
Result: 22.2 µM

Task: Please respond with reported CC50 (system human embryonic kidney (HEK) 293 T cells) for COC(=O)CC1C2CCCN3CCCC(CN1Cc1ccc(Cl)c(Cl)c1)C23.Cl.Cl (stereo not shown) [10d] .
Result: 153 µM

====

# testMethodNotes: in vitro
# assaySetup: human
measurementKind: CC50 (µM)
Write the number in µM without appending the unit.

Task: // fetch CC50 given entry CN[C@H]1CC[C@@H](c2ccc(Cl)c(Cl)c2)c2ccccc21
Result: 29.2

====

# Tested on: pseudotyped EBOV virus (pHIV-EBOVGP-Fluc)
# Assay type: cell-based, Ebola virus (EBOV)
What SI was measured for each of the following?
# output: bare number, no unit

Task: Return SI (reported value) for this molecule: O=C(O)CCCC1C2CCCN3CCCC(CN1S(=O)(=O)c1ccc(Cl)cc1)C23 (stereo not shown) [5c]
Result: 17.5

Task: Assign SI to the following record: COC(=O)CCCC1C2CCCN3CCCC(CN1Cc1ccc(Cl)cc1)C23.Cl.Cl (stereo not shown) [7a]
Result: 7.87

Task: Given COC(=O)CC1C2CCCN3CCCC(CN1Cc1ccc(Cl)c(Cl)c1)C23.Cl.Cl (stereo not shown) [10d] , respond with its SI.
Result: 15.3

Task: Please report the measured SI for COC(=O)CCCC1C2CCCN3CCCC(CN1Cc1ccc(Cl)c(Cl)c1)C23.Cl.Cl (stereo not shown) [4a]
Result: 8.28

Task: Respond only with SI recorded for COC(=O)CCC[C@@H]1[C@H]2CCCN3CCC[C@H](CN1C(=O)c1ccc(Cl)cc1)[C@@H]23 [4b, Methyl 12N-p-chlorobenzoyl sophoridinate]
Result: 5.12

====

Answer each item with its documented CC50.
Form entry: value (µM) — number only.

Task: Provide CC50, tested on human embryonic kidney (HEK) 293 T cells, for O=C(O)CCC[C@@H]1[C@H]2CCCN3CCC[C@@H](CN1Cc1ccc(Cl)cc1)[C@@H]23 [8a] .
Result: 200

Task: Name the value of CC50 reported for O=C(O)CC1C2CCCN3CCCC(CN1CCCc1cc(Cl)cc(Cl)c1)C23 (stereo not shown) [15f] when tested on human embryonic kidney (HEK) 293 T cells.
Result: 83.3
